- testSummary: Primary qHTS for inhibitors of nuclear receptor binding SET domain protein 2 (NSD2) in an isogenic RCH-ACV NSD2 p.E1099K mutant (9B) (AID 1645876); further: nearly all actives have a fitted effect of over 70% in size
- measurementParameters: RCH-ACV (leukaemia line) NSD2 E1099K (9B) viability, CellTiter-Glo, 72 h; series mostly up to 44.9 µM
Records with an inconclusive call do not appear. The source made the active and inactive calls. The call rests on the fitted dose curve; in most records, active means well fitted inhibition curve with a large enough effect; inconclusive means small, poorly fitted or top-dose-only effect; inactive means flat fitted curve, though single readings scatter. Where a SMILES comes first, the peptide text is derived from it. [ ]: non-standard residue; d: D form. ξ: configuration not given here. ξPhe(βξ-Me) = CC(c1ccccc1)C(N)C(=O)O; GABA = NCCCC(=O)O
Field 'call' accepts active, inactive

Previously resolved entries follow.
-- ask Hi, do you know how CC1(C)CC(=O)C2=C(C1)NC(=S)NC2c1cccc(O)c1 (stereo not given) came out in this test?
-- reply active

-- ask Follow-up item: O=C(OCC1=CC(O)C2C=CO[C@@H](O[C@@H]3O[C@H](CO)[C@@H](O)[C@H](O)[C@H]3O)C12)c1ccccc1 (stereo not given in full)
-- reply inactive

-- ask Follow-up item: CC1=CC2C(CC1OC1OC(CO)C(O)C(O)C1O)C(C)CC(=O)C2C(C)C (stereo not given)
-- reply inactive

-- ask Follow-up item: CC1(C)CC[C@]2(C(=O)O[C@@H]3O[C@H](CO)[C@@H](O)[C@H](O)[C@H]3O)CC[C@]3(C)C(=CCC4[C@@]5(C)C[C@@H](O)[C@H](O)[C@](C)(C(=O)O)C5CC[C@]43C)C2C1O (stereo not given in full)
-- reply inactive

-- ask Follow-up item: CC1NC(=O)CCCNC(=O)C(Cc2c[nH]c3ccccc23)NC(=O)C(C)NC(=O)C(C(C)C)NC(=O)C(C(C)c2ccccc2)NC(=O)C(C(C)C)NC1=O (stereo not drawn) (cyclo([GABA]AV[ξPhe(βξ-Me)]VAW); configuration not given here)
-- reply inactive

Now, please, on to the next compound.
-- ask Hi, do you know how COc1ccc(F)cc1-c1cc(NC(=O)[C@@H]2CCCNC2)ncc1Cl came out in this test?
-- reply active

* * *

In this section, each of the molecules is paired with its reported max response.
- System: HEK293
- testSummary: Cytotoxic Profiling of Annotated Libraries Using Quantitative High-Throughput Screening (AID 1296008); further: on the % scale 0 is the no-effect control and ±100 the full control effect; nearly all actives have a fitted effect of over 60% in size
- measurementParameters: Five cell lines viability, CellTiter-Glo ATP luminescence, 48-72 h; hits give low values
Inconclusive results are not listed. Activity calls are given as the source filed them. The call rests on the fitted dose curve; in most records, active means well fitted inhibition curve with a large enough effect; inconclusive means small, poorly fitted or top-dose-only effect; inactive means flat fitted curve, though single readings scatter.

-- ask Item Cc1nc(NC(=O)N2CCCC2C(N)=O)sc1-c1csc(C(C)(C)C)n1 (stereo not given) has what recorded max response?
-- reply -25.9% (inactive)

-- ask Follow-up item: CC(=O)O[C@H]1CC[C@H](C)[C@@]2(C)[C@H](OC(C)=O)c3c(C)coc3C(=O)[C@H]12
-- reply -27.7% (inactive)

-- ask Follow-up item: CC(=O)O[C@H]1[C@@H](O)[C@H](O[C@H]2[C@@H]3C=CO[C@@H](O[C@H]4O[C@@H](CO)[C@H](O)[C@@H](O)[C@@H]4O)[C@@H]3[C@@]3(CO)O[C@@H]23)O[C@@H](C)[C@@H]1OC(=O)/C=C/c1ccccc1
-- reply 4.7% (inactive)

-- ask Follow-up item: CC(C)C[C@H](CC(=O)NO)C(=O)N[C@@H](Cc1ccc2ccccc2c1)C(=O)N[C@@H](C)C(=O)NCCN
-- reply 0.393% (inactive)

Please look at the following molecule next.
-- ask Item CCCCCCOc1cc2c(cc1N(C)c1ncc(C(=O)O)cn1)C(C)(C)CCC2(C)C has what recorded max response?
-- reply 3.1% (inactive)

* * *

In this section, each of the compounds is paired with its reported max response.
- Test system: HaCat
- testSummary: Cytotoxic Profiling of Annotated Libraries Using Quantitative High-Throughput Screening (AID 1296008); further: on the % scale 0 is the no-effect control and ±100 the full control effect; nearly all actives have a fitted effect of over 60% in size
- measurementParameters: Five cell lines viability, CellTiter-Glo ATP luminescence, 48-72 h; hits give low values
Records with an inconclusive call do not appear.
Could you give me the number in %? Just the number is fine.

Please review the following examples before continuing.
-- ask Item C/C=C1\[C@H](OC2OC(COC3OC(CO)C(O)C(O)C3O)C(O)C(O)C2O)OC=C(C(=O)OC)[C@H]1CC(=O)OCCc1ccc(O)cc1 (stereo partly specified) has what recorded max response?
-- reply -0.414

-- ask Follow-up item: C=C1[C@@H]2CC[C@@H]3[C@@](CCC4C(C(=O)O)(C(=O)O)C[C@@H](O[C@@H]5O[C@H](CO)[C@@H](O)[C@H](O)[C@H]5OC(=O)CC(C)C)C[C@]43C)(C2)[C@H]1O (stereo partly specified)
-- reply 2.26

-- ask Follow-up item: Cc1ccccc1C#Cc1ccc(CCC(=O)O)cc1
-- reply -15.6

-- ask Follow-up item: CC1(C=O)CC[C@]2(C(=O)O[C@@H]3O[C@H](CO)[C@@H](O)[C@H](O)[C@H]3O)CC[C@]3(C)C(=CCC4[C@@]5(C)C[C@H](O)[C@H](O[C@@H]6OC[C@@H](O)[C@H](O)[C@H]6O)[C@@](C)(CO)C5CC[C@]43C)C2C1 (stereo partly specified)
-- reply -0.307

-- ask Follow-up item: COC(=O)C[C@H]1C(C)(C)[C@H](OC(C)=O)C2CC3=C4CC(=O)O[C@@H](c5ccoc5)[C@]4(C)CCC3[C@@]1(C)C2=O (stereo partly specified)
-- reply 1.4

Please look at the following compound next.
-- ask Item COc1cc(O)c2c(c1)C1=C[C@H](O)[C@@H](O)C[C@]1(C)OC2=O has what recorded max response?
-- reply -2.92

* * *

- Test system: SKOV3
- testSummary: Primary qHTS to identify gynecologic anti-cancer compounds using libraries of approved drugs and bioactive compounds (AID 1345084); further: nearly all actives have a fitted effect of over 55% in size
- measurementParameters: Gynecologic cancer cell panel viability, ATPlite luminescence, 48 h; series mostly up to 57.5 µM
Results filed as inconclusive are left out. Active and inactive are the calls of the source. Calls come from the whole dose curve; as a rule, active = well fitted cell-killing curve with a large enough effect; inconclusive = small, poorly fitted or top-dose-only effect, or effect the other way; inactive = flat fitted curve, though single readings scatter.
Field 'call' accepts active, inactive

Previously resolved entries follow.
-- ask Hi, do you know how COC(=O)Cc1cc2c(c([N+](=O)[O-])c1)N(C(=O)CC[C@H](N)C(=O)O)CC2 came out in this test?
-- reply inactive

-- ask Follow-up item: Cc1cc(OCc2nc(-c3ccccc3Cl)cs2)ccc1OCC(=O)O
-- reply inactive

-- ask Follow-up item: CC(C)c1nc(-c2ccc(NC(=O)Nc3cccc(C(F)(F)F)c3)c3ccccc23)c2c(N)nccn12
-- reply active

-- ask Follow-up item: NC(=O)c1cccc(-c2cc(OC(=O)NC3CCCCC3)ccc2O)c1
-- reply inactive

-- ask Follow-up item: CCC(C)C(=O)OC1CC(C)C=C2C=CC(C)C(CCC(O)CC(O)CC(=O)O)C21 (centres undefined)
-- reply inactive

-- ask Follow-up item: CC1(O)CCCC2(C)C1CCC13CC(CO)C(CCC12)C3 (centres undefined)
-- reply inactive

-- ask Follow-up item: O=C(OC[C@@]1(O)CO[C@@H](O[C@H]2[C@H](Oc3ccc(O)cc3)O[C@H](CO)[C@@H](O)[C@@H]2O)[C@@H]1O)c1ccc(O)cc1
-- reply inactive

-- ask Follow-up item: CNC(=O)c1ccccc1Nc1nc(Nc2ccc3c(c2OC)CCCC(N2CCN(CCO)CC2)C3)ncc1Cl (centres undefined)
-- reply active

Further cases:
-- ask Hi, do you know how Nc1nc2c(c(N3CCNCC3)n1)CCC1=C2[C@@H]2CCCC[C@@H]2O1 came out in this test?
-- reply inactive

-- ask Follow-up item: Cc1csc(NC(=O)c2ccc(COc3cccc(Cl)c3)o2)n1
-- reply inactive

-- ask Follow-up item: CC(C)(F)C[C@@H](N[C@@H](c1ccc(-c2ccc(S(C)(=O)=O)cc2)cc1)C(F)(F)F)C(=O)NC1(C#N)CC1
-- reply inactive

-- ask Follow-up item: COc1c2ccoc2cc2oc(CO[C@@H]3O[C@H](CO)[C@@H](O)[C@H](O)[C@H]3O)cc(=O)c12
-- reply inactive

-- ask Follow-up item: COc1ccc(C2(O)CCC(N3CC[C@@H](NC(=O)CNC(=O)c4cccc(C(F)(F)F)c4)C3)CC2)cn1 (some centres undefined)
-- reply inactive

-- ask Follow-up item: COC(=O)[C@@]1(c2ccc(C)cc2)C[C@H]1CN1CCC(O)(c2ccccc2)CC1
-- reply inactive

-- ask Follow-up item: CCOC(=O)Nc1cc(-c2ccc(C)c(NS(C)(=O)=O)c2)nn2c(C)nnc12
-- reply active

-- ask Follow-up item: CCN(CC)CCN(Cc1ccc(-c2ccc(C(F)(F)F)cc2)cc1)C(=O)Cn1c(SCc2ccc(F)cc2)nc(=O)c2c1CCC2
-- reply active

-- ask Follow-up item: COc1cc(O)c2c(c1)C1=C[C@H](O)[C@@H](O)C[C@]1(C)OC2=O
-- reply inactive

-- ask Follow-up item: CC(C)c1cc(CNc2nc(Nc3cc(C4CC4)[nH]n3)cc(N3CCN(C)CC3)n2)on1
-- reply active

-- ask Follow-up item: CC1=CC(=O)C2C(C)(C)CCC[C@]2(C)[C@H]1CO (some centres undefined)
-- reply inactive

All values here come from PubChem BioAssay (NCATS).
